Every entry's value here was drawn from PubChem BioAssay.

Assay: HepG2 cytotoxicity, primary screen, cytotoxicity control for P. falciparum antimalarial project, cell-based, ATP luminescence (AID 2303);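 also: 0% = DMSO wells and 100% = digitonin-killed cells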
Settings: HepG2 viability, 24-48 h, at 10 µM, stronger effect = higher value
Observation type: inhibition (%)

> print(dat)
                                   compound  observation.type  readout.value
1  Cc1cc(Cl)c(S(=O)(=O)NC2CCCC2)cc1OCC(=O)NC1CCCCC1        inhibition             19
2  O=C(/C=C/c1ccc(Cl)c(Cl)c1)N1CCC(CN2CCC(c3c[nH]c4ccncc34)CC2)CC1        inhibition             44
3  Cc1cccc2[nH]c(-c3ccc(-c4ccc(C(=O)NCCN5CCCC5)cc4)s3)nc12        inhibition             20
4  COc1ccc(CNc2nccc3ccc(-c4ccc(N)nc4)cc23)cc1        inhibition              7
5  CC1N=C(N)N=C(N)N1OCc1ccccc1 (centres undefined)        inhibition             62
6  CCN(CC)CCN(Cc1ccc(-c2ccc(C(F)(F)F)cc2)cc1)C(=O)Cn1nc(-c2ccc(C(F)(F)F)cc2)ccc1=O        inhibition             44
7  Cc1cccc(NC(=O)Nc2cccc(-c3ccc(-c4nc5ccc(C(F)(F)F)cc5[nH]4)cc3)c2)c1        inhibition             44
8  CCc1ccc(CN(CCCOc2cccc(CC(=O)NCc3cnc[nH]3)c2)Cc2ccc(-n3ccnc3)cc2)cc1        inhibition              1
9  Cc1cnc(CN(Cc2ccc(-c3ccc(CNCCc4ccc(S(C)(=O)=O)cc4)cn3)cc2)C(=O)c2ccc([N+](=O)[O-])c(C)c2)cn1        inhibition             -4

* * *

Target: L-lactate dehydrogenase (Plasmodium falciparum (isolate CDC / Honduras)) (UniProt Q27743)
Sequence (Q27743 whole entry, looked up): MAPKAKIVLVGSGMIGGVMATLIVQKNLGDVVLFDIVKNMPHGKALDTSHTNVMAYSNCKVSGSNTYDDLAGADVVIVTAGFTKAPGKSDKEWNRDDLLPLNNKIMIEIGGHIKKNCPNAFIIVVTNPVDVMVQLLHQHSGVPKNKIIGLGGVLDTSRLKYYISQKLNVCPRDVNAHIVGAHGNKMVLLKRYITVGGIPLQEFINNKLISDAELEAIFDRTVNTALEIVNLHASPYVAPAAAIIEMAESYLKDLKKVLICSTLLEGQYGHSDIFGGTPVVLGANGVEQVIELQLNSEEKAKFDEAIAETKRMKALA
Test: PfLDH activity inhibition – cell lysate, 3D7 strain, counter-screen for P. falciparum growth inhibition project (AID 2304);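 also: 0% = vehicle and 100% = reference inhibitor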
Settings: P. falciparum 3D7 crude extract, LDH APAD/NBT absorbance; at 2 µM; stronger effect = higher value
As shown below, each of these compounds has a reported inhibition value.
Observation type: inhibition (%)

> print(dat)
                                    compound  readout.value
 1  Clc1ccc(Nc2nc3nonc3nc2Nc2ccc(Cl)c(Cl)c2)cc1              0
 2  CC(C)(C)OC(=O)NCCc1cccc(-c2c[nH]c3ncc(-c4cccc(NS(C)(=O)=O)c4)cc23)c1             -3
 3  COc1ccc(C2CC(c3cccs3)=NN2C(=O)c2ccco2)cc1OC (stereo not drawn)              4
 4  Cc1ccc(-c2nc(N3CCN(C(=O)c4ccco4)CC3)c3ccccc3n2)cc1              3
 5  O=C(/C=C/c1ccc(Cl)c(Cl)c1)NCCCCCN1CCC(CCNC(=O)c2snnc2-c2ccccc2)CC1             -2
 6  COc1cc(C2NCC3(CCOCC3)c3cc4c(cc32)OCCO4)cc(OC)c1OC (stereo not drawn)             -5
 7  Cc1ccccc1C1CCN(C2CCC(NC(=O)/C=C/c3ccc4c(c3)OC(F)(F)O4)CC2)CC1 (stereo not drawn)              2
 8  O=C1CSc2ccc(CNC3CCN(CCc4c(Cl)cnc5ccc(F)cc45)CC3)nc2N1             -2
 9       COc1ccc(-c2csc3nc(C)nc(Cl)c23)cc1OC             -6
10  Cc1[nH]c(C)c(-c2ccc(Oc3ccc(Cl)cc3)cc2)c(=O)c1Br             -4
11        Cc1sc2ncnc(Sc3nc4ccccc4[nH]3)c2c1C              1
12  Cc1[nH]c2ccc(-c3ccc(OC(F)(F)F)cc3)cc2c(=O)c1C#N             -9
13  Cc1cccc2[nH]c(-c3ccc(-c4cccc(CN5CCN(c6ccc(C#N)cn6)CC5)c4)s3)nc12              2
14  O=C(/C=C/c1ccc(Cl)c(Cl)c1)NCCCCCN1CCCN(C(=O)Nc2cccc(Cl)c2)CC1              0
15  COc1ccc(CNCc2ccc(F)cc2)cc1-c1ccc(S(=O)(=O)NCCN2CCCC2)cc1              0
16  COc1ccc(NC(=O)[C@H](Cc2ccccc2)Nc2cc(C)nc(NCCc3ccccc3)n2)cc1             -1
17  O=c1cc(NCCCNCc2cc(Br)ccc2F)[nH]c2ccccc12              6
18  Cc1noc(C)c1C(=O)N1CCc2cc3nccc(N4CCN5CCC[C@H]5C4)c3cc21             -5
19  CN(C)CCOc1ccc2[nH]c(-c3cccc(OCc4ccccc4)c3)nc2c1C#N             -5
20  Cc1cc(N2CCN(C)CC2)nc2ccc(NC(=O)Cc3cccc(C(F)(F)F)c3)cc12              3
21  c1cc(CNCc2ccc3c(c2)OCO3)cc(-c2cccc(CNc3ccc4ncccc4c3)c2)c1             -4
22  Cc1cc(NN=Cc2ccccc2F)c2cc(C(F)(F)F)ccc2n1              2
23  COc1ccc2nccc(NC(=O)N3CCC(NCc4cc5ccccc5[nH]4)CC3)c2n1             -5
24  CC(C)(C)OC(=O)/C=C(\C(=O)OCc1ccc([N+](=O)[O-])cc1)c1csc(NC(c2ccccc2)(c2ccccc2)c2ccccc2)n1              3
25  COc1ccc(CCN(C)CCOc2ccc(NC(=O)c3cccc4cc5ccccc5nc34)cc2)cc1OC             -5
26  Cc1ccc(F)cc1S(=O)(=O)Nc1cccc(CCN2CCC(N3CCCCC3)CC2)c1              5
27  CCNc1cc(-c2cccc(OC)c2)nc(Nc2ccc(F)cc2)n1              3
28  O=C(Cn1c(CCc2cccc(F)c2F)nc(=O)c2ccccc21)N(Cc1ccc(-c2ccc(C(F)(F)F)cc2)cc1)C1CCN(C2CCSCC2)CC1              0
29           COc1nc(-n2ccc(=N)cc2)nc2ccccc12              1
30  CCOc1ccc(C(=O)N2CCOC(CCN3CCC(c4ccccc4)CC3)(c3ccc(Cl)c(Cl)c3)C2)cc1 (stereo not drawn)              8
31  O=C(NC1CCN(CCCc2ccccc2)CC1)c1ccc(-c2cccc(C(F)(F)F)c2)s1              1
32  COc1ccc(-c2cc(C(=O)N[C@@H](CC3CCCCC3)C(=O)NCCN3CCCC3)ccc2O)cc1              2
33  CN(C)CCOc1ccc2c(=O)cc(CCc3cccc(F)c3F)n(CC(=O)N(C)Cc3ccc(-c4ccc(C(F)(F)F)cc4)cc3)c2c1              2
34  CC(Sc1nc(-c2ccccc2)c(-c2ccccc2)o1)C(=O)NC1CC1 (stereo not drawn)             -2
35  O=C(C=Cc1ccc(Cl)c(Cl)c1)NCCCCCN1CCCC(CCCNC(=O)c2cccs2)C1 (stereo not drawn)              1
36  COc1ccc(CNC2Cc3ccccc3C2)cc1-c1ccc(S(=O)(=O)NCc2cccnc2)s1              3
37  CCCCn1c(N)c(N(Cc2ccco2)C(=O)C=Cc2cc(OC)c3c(c2)OCCO3)c(=O)[nH]c1=O              2
38  COc1cc2nc(N3CCC(CNCc4ccc(-c5ccc(C(F)(F)F)cc5)cc4)CC3)nc(N)c2cc1OC             -4
